- Test system: Trypanosoma brucei brucei
- test_summary: Compound was evaluated for the inhibition of growth of Trypanosoma brucei
- Format: functional, organism-based
pIC50: −log10 of the molar value.
assay_endpoint: pIC50

A = C[S+](C[C@H]1O[C@@H](n2cnc3c(N)ncnc32)[C@H](O)[C@@H]1O)[C@H]1C=C[C@H](ON)C1 (some centres not stated)
B = C[S+](C[C@H]1O[C@@H](n2cnc3c(N)ncnc32)[C@H](O)[C@@H]1O)C1C=CC(ON)C1.O=S(=O)(O)O.O=S(=O)([O-])O (some centres not stated)
Task: Pick one, A or B : lowest reported pIC50. Answer format: the label of the selected item.
Output: A
(A: 5.00, B: 6.05)
